# Assay System: BRD4 bromodomains (Homo sapiens, UniProt O60885)
# Assay Method Text: NanoBRET target engagement assay, both bromodomains
# Type: cell-based
# Reported Conditions: intact and permeabilized cells; read-out: NanoBRET EC50 both BRD4 bromodomains
Recorded Metric: EC50

Q: Need EC50 of Cn1cc(-c2ccc(C(=O)Nc3cc(-c4ccccc4)ccc3N)nc2)c2cc[nH]c2c1=O , thanks.
Ans: 100 to 400 nM

====

# Assay System: HDAC2 (Homo sapiens)
# Sequence (Q92769 whole entry): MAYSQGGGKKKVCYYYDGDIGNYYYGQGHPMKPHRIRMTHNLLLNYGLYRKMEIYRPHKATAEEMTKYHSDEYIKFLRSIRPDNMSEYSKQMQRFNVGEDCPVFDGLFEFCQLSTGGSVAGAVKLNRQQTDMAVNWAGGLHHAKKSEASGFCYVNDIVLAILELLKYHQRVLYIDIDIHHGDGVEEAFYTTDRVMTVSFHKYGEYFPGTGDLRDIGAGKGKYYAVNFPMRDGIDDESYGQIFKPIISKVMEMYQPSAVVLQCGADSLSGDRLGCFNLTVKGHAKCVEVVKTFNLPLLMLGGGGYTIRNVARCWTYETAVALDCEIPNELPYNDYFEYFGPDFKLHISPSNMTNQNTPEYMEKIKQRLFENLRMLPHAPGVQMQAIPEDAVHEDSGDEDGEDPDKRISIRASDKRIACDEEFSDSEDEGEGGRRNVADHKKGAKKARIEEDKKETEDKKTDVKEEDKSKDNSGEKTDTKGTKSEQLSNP
# Assay Method Text: NanoBRET target engagement assay (HEK293T)
# Type: cell-based
# Set-up: BRD4 bromodomains and full-length HDACs were obtained as plasmids cloned in-frame with a terminal NanoLuc fusion; host or cells: HEK293T
# Reported Conditions: intact cells
The reader will find reported pEC50 values listed item by item below.
Remember, pEC50 is on a log scale: it is -log10 of the molar concentration.

Known pEC50 results, listed for orientation:
Query Smiles: Cn1cc(-c2ccc(C(=O)Nc3ccccc3N)cc2N)c2cc[nH]c2c1=O
Recorded Metric: pEC50
Recorded Result: 4.40

Query Smiles: Cn1cc(C(=O)Nc2ccc(C(=O)Nc3ccccc3N)cc2)c2cc[nH]c2c1=O
Recorded Metric: pEC50
Recorded Result: 5.43

Query Smiles: Cc1cc(/N=N/c2ccc(C(=O)Nc3ccccc3N)cc2)c2cc[nH]c2c1O
Recorded Metric: pEC50
Recorded Result: 5.89

Query Smiles: Cn1cc(-c2ccc(C(=O)Nc3ccccc3N)nn2)c2cc[nH]c2c1=O
Recorded Metric: pEC50
Recorded Result: 5.34

Query Smiles: Cn1cc(-c2ccc(C(=O)Nc3cc(-c4ccco4)ccc3N)nc2)c2cc[nH]c2c1=O
Recorded Metric: pEC50
Recorded Result: 5.54

Q: pEC50 of Cn1cc(-c2ccc(C(=O)Nc3ccccc3N)cc2)c2cc[nH]c2c1=O on HDAC2 (Homo sapiens)?
Ans: 5.80

====

# Assay System: BRD4 BD2 (Homo sapiens)
# Assay Method Text: NanoBRET target engagement assay (HEK293T)
# Format: cell-based
# Parameters: BRD4 bromodomains and full-length HDACs were obtained as plasmids cloned in-frame with a terminal NanoLuc fusion; host or cells: HEK293T
# Reported Conditions: lysed cells (digitonin)
Recorded Metric: EC50

Q: Need EC50 of CC(=O)Nc1ccc(C(=O)Nc2ccccc2N)cc1 [CI-994, reference compound] , thanks.
Ans: > 50 µM

====

# Assay System: BRD4 BD1 (Homo sapiens, UniProt O60885)
# Assay Method Text: NanoBRET target engagement assay (HEK293T)
# Format: cell-based
# Design: BRD4 bromodomains and full-length HDACs were obtained as plasmids cloned in-frame with a terminal NanoLuc fusion; host or cells: HEK293T
# Reported Conditions: lysed cells (digitonin)
Recorded Metric: EC50

Q: Need EC50 of CC(=O)Nc1ccc(C(=O)Nc2ccccc2N)cc1 [CI-994, reference compound] , thanks.
Ans: > 50 µM

====

# Assay System: HDAC1 (Homo sapiens, UniProt Q13547)
# Sequence (Q13547 whole entry): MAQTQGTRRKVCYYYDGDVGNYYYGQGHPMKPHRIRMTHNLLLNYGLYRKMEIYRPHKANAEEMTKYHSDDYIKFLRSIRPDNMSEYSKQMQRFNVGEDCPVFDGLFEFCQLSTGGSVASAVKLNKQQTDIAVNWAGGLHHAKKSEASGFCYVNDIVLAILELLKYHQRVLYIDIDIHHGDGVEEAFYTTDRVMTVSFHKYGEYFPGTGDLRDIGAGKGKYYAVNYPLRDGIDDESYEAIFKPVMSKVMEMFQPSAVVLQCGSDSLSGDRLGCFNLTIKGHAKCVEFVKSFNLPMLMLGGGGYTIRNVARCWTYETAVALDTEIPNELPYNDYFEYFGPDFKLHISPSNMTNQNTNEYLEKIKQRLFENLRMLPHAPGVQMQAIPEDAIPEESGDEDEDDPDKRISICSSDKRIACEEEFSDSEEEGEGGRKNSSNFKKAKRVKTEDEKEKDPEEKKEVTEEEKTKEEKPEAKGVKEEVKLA
# Assay Method Text: NanoBRET target engagement assay (HEK293T)
# Assay type: cell-based
# Set-up: BRD4 bromodomains and full-length HDACs were obtained as plasmids cloned in-frame with a terminal NanoLuc fusion; host or cells: HEK293T
# Reported Conditions: intact cells
The reader will find reported EC50 values listed item by item below.

Molecule: Cn1cc(C(=O)Nc2ccc(C(=O)Nc3ccccc3N)cc2)c2cc[nH]c2c1=O [NB480]
Assay System: HDAC1 (Homo sapiens, UniProt Q13547)
Recorded Result: 2300 nM

Molecule: COc1cc(C(=O)Nc2ccccc2N)ccc1-c1cn(C)c(=O)c2[nH]ccc12 [NB470]
Assay System: HDAC1 (Homo sapiens, UniProt Q13547)
Recorded Result: > 50000 nM

Molecule: Cc1cc(/N=N/c2ccc(C(=O)Nc3ccccc3N)cc2)c2cc[nH]c2c1O [NB390]
Assay System: HDAC1 (Homo sapiens, UniProt Q13547)
Recorded Result: 2100 nM

Moving on to the next molecule.
Q: Need EC50 of Cc1cc(/N=N/c2ccc(S(=O)(=O)Nc3ccccn3)cc2)c(N)cc1O [MS436, reference compound] , thanks.
Ans: 18800 nM
